// values below are reported KM (nM); Catalytic activity of FIXa variants (KM)
biological target: Factor X (FX), P00742
Sequence (P00742 whole entry, looked up): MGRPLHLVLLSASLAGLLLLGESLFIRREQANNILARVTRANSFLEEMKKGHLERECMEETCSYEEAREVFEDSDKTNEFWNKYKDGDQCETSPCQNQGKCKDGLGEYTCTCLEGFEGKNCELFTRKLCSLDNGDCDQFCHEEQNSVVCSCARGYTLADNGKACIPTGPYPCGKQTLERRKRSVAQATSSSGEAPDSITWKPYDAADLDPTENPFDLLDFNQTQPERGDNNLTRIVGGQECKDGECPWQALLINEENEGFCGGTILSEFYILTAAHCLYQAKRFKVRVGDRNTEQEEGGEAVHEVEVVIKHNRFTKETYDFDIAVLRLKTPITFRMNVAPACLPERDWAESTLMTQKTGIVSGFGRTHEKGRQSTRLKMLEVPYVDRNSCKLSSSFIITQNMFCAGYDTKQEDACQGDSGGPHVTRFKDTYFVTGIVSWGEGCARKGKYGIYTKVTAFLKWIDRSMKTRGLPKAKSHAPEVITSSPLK
Be sure to follow the number with its unit.

FIXa-K247N/N249S/N260S (protein) chain 1: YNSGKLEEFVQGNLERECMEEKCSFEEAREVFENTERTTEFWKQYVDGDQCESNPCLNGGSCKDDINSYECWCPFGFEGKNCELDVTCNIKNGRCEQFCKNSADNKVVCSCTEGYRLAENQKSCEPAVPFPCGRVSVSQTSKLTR chain 2: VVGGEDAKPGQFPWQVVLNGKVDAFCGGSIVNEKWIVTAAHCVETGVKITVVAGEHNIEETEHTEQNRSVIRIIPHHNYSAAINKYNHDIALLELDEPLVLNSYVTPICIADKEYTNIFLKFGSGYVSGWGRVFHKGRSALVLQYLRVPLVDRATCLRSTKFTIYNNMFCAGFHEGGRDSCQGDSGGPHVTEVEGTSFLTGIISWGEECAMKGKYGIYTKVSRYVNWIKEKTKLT | 114 nM

What does the data say about its KM (nM); Catalytic activity of FIXa variants (KM)? Entry: FIXa-R318Y/R338E/E410N/T412V (protein) chain 1: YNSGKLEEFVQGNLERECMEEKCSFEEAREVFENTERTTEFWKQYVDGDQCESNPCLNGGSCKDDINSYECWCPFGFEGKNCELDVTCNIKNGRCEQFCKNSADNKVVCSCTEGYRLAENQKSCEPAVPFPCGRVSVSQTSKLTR chain 2: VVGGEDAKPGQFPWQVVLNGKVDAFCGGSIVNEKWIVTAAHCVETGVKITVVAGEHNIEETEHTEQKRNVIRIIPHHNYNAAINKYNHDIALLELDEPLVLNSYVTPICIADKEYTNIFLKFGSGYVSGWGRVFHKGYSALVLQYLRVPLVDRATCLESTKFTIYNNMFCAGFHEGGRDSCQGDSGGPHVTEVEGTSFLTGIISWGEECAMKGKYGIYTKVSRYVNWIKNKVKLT
29.7 nM

What does the data say about its KM (nM); Catalytic activity of FIXa variants (KM)? Entry: FIXa-R318Y/R338E/N346D/R403E/E410N (protein) chain 1: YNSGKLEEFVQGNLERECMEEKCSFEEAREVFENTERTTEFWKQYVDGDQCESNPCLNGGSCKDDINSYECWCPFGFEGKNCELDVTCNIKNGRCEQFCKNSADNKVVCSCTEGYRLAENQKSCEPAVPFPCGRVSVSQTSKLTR chain 2: VVGGEDAKPGQFPWQVVLNGKVDAFCGGSIVNEKWIVTAAHCVETGVKITVVAGEHNIEETEHTEQKRNVIRIIPHHNYNAAINKYNHDIALLELDEPLVLNSYVTPICIADKEYTNIFLKFGSGYVSGWGRVFHKGYSALVLQYLRVPLVDRATCLESTKFTIYDNMFCAGFHEGGRDSCQGDSGGPHVTEVEGTSFLTGIISWGEECAMKGKYGIYTKVSEYVNWIKNKTKLT
77.7 nM
